# tested.system: Glycogen phosphorylase, muscle form (Oryctolagus cuniculus)
# Sequence (P00489 whole entry): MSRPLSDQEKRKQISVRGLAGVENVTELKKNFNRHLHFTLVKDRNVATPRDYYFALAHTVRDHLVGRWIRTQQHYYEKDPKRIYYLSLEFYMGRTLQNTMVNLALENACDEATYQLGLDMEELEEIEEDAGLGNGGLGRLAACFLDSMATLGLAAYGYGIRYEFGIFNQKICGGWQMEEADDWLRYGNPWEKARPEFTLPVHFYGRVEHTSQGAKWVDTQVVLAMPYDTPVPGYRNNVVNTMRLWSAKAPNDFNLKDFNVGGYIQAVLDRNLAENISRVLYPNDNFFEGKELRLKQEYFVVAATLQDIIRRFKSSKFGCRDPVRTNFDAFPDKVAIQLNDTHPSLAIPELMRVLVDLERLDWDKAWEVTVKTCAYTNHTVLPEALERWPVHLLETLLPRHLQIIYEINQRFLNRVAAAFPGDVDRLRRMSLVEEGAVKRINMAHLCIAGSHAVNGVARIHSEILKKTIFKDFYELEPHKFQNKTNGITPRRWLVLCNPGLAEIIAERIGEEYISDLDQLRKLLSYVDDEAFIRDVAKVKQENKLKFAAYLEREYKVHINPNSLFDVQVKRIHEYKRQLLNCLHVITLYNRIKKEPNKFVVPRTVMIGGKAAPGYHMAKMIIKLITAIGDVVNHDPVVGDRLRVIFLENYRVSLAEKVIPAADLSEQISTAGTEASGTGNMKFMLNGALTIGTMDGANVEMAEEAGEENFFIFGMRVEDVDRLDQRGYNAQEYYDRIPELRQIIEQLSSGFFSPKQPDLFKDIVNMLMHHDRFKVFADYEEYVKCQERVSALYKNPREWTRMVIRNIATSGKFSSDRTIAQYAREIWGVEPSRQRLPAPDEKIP
So I've got a bunch of compounds here, and I need their Ki values.
Numbers only, in µM.

The cases that follow already have their Ki on record.
{"columns": ["mol.smiles", "experimental.value"],
 "data": [
  ["O=C(N[C@@H]1O[C@H](CO)[C@@H](O)[C@H](O)[C@H]1O)c1nnc(-c2ccc3ccccc3c2)o1", 30],
  ["O=C(N[C@@H]1O[C@H](CO)[C@@H](O)[C@H](O)[C@H]1O)c1nnc(-c2ccccc2)o1", 545]
]}

Q: Fill in: Ki of O=C(N[C@@H]1O[C@H](CO)[C@@H](O)[C@H](O)[C@H]1O)c1nc(-c2cccc3ccccc23)no1 is ___
A: 145
